run.description: yeast display, Sf9 membrane polyspecificity reagent, FACS + sequencing; frameworks hold sequencing errors
recorded.endpoint: polyreactivity (PSR sort gate)

INSERT INTO results (ordered_residues, recorded_endpoint, result) VALUES
  ('QVQLVESGGGLVQAGGSLRLSCAASGRIFTTYAMGWYRQAPGKERELVARITLSAGRTYYADSVKGRFTISRDNAKYSVYLQMNSLKPEDTEVYYCAAEGFYRSSPVRTYIGYDYWGQGTQVTVSS', 'polyreactivity (PSR sort gate)', 'high polyreactivity'),
  ('QVQLVESGGGLVQAGGSLRLSCAASGFIFTGYAMGWYRQAPGKERELVATISRRGGSTYYADSVKGRFTISRDNAKNTVYLQMNSLKPEDTAVYYCAAQRTLYRSGFDSWGQGTQVTVSS', 'polyreactivity (PSR sort gate)', 'high polyreactivity');

----------
run.description: yeast display, Sf9 membrane polyspecificity reagent, FACS + sequencing; frameworks hold sequencing errors
recorded.endpoint: polyreactivity (PSR sort gate)

INSERT INTO results (ordered_residues, result) VALUES
  ('QVQLVESGGGLVQAGGSLRLSCAASRRIFSQYAMGWSRQAPGKERELVAAITWRGASTYYADSVKGRFTISRDNAKNTVYLQMNSLKPEDTAVYYCAAGYPPGRYYRVRWVGYWGQGTQVTVSS', 'high polyreactivity'),
  ('QVHLVESGGGLVQAGGSLRLSCAASGSTFIYYGMGWYRHAPGKERELVATISSGGSTNYADSVKGRFTISRDNAKNTVYLQMNSLKPEDTAVYYCAVAPYYYGLLWNTFYEYYYWGQGTQVTVSS', 'high polyreactivity'),
  ('QVQLVESGGGLVQAGGSLRLTCAASGSSLDHYTMGWYRQAPGKEMELVAGIRWTGGRTYYADSVKGRFTISRDNAKNTVYLQMNSLKQEDNAVYYCAKTGWYGPVLRFYYWGQGTQVTVSS', 'high polyreactivity'),
  ('QVQLVESGGGLVQAGGSLSFSCAASGFIFRAYTMGWYRQAPGKERELVAAITSSGGRTYYADSVKGRFTISRDNAKNSVYLQMNSLKPEDTAVYYCATVYAKWKQFDYWGQGTQVTVSS', 'high polyreactivity'),
  ('QVQLVDSGGGLVQAGGSLLLSCAASGSTINHKDMGLYRQAPGKERELVAAISWSGGSTTYADSVKGRFTISRDNAKNTVYLQMNSLKPEDTAVYYCAADWYYWGFIFDYWGQGTQVTVSS', 'high polyreactivity'),
  ('QVQLVESGGGLVQAGGSLRLSCAASGRIFGTYTMGWYRQAPGKERELVASIRFGGSTYYADSVKGRFTISRDNAKNSVYLQMNSLKPEDTAVYYCNRVYGYNRRYGYWGQGTQVTVSS', 'high polyreactivity');

For the sequence shown here, QVQLVESGGGLVQAGGSLRLICAASGITFDGYAMGWYRQAPGKERELVAAISWSGGRTYYADSVKGRFTISRDNAKNTVYLQMNSLKPEDTAVYYCAVYRRGVVYLLTSGVDYWGQGTQVTVSS , give the reported polyreactivity (PSR sort gate).
high polyreactivity

Same question for QVQLVESGGGLVQAGGSLRLSCGAAGSIFAPYALGWYRQAPGKERELVAAISWTGGRTYYADSVKGRFTISRDNAKNTVYLQRNSLKPEDTAVYYCAAAYYGTRPYGYWGQGSQVTVSS please.
high polyreactivity

Same question for QVQLVESGGGLVQAGGSLLLSCAASGSTFPGYAMGWYRQEPGKERELVAAGGSTYYADSVKGRFTISLDNAKNTVYLQMNSLKPEDTAVYYCNARWYLVPIMEYLGQGTQVTVSS please.
low polyreactivity

Same question for QVQLVESAGGLVQAGGSLRLSCAASGFIFEWYTMGWYRHAPGKERELVARISSDGSTTYADSVKGRFRISRDNAKNTVYLQMNSLKPEDTAVYYCAADVTYPGLKYIFDYWGQGSQVTVSS please.
low polyreactivity

Same question for QVQLVESGGGLVQAGGSLRLSCAASGFISSYYAMGWYRQAPGKERELVAAITSGGRTYYADSVKGRFTISRDNAKNTDYLQMNSLKPEDTAVYYCGKYSRTNAFDYWGQGTQVTVSS please.
high polyreactivity

Same question for QVQLVESGGGLVQAGGSLRLSCAASGITLYGYTMGWYRQAPGKERELVAGISRGGSTYYADSVKGRFTISRYNEKNTVFLQLNSLKPEDSEVYYCAAAGWYRGDYWGQGTQVTVSS please.
high polyreactivity

Same question for QVQLVESGGGLVQAGGSLRLSCAPSGSIFVHNAMGWYRQAPGKERELVAALDGGGGTYYADSVKGRFTISRDNAKNTVYLQMNSLKPEDTAVYYCAARYFHHYWGDLEVEFDYWGQGTQVTVSS please.
low polyreactivity

Same question for QVQLVESGGGLVQAGGSLRLSCAASGSNFSPNAMGWYRQAPGKERELVAAIDTRDGTTYYADSVKGRFTISRDNAKNTVYLQMNSLKPEDTAVYYCAAGGPVRYGIATPTGAKRFGYWGQGTQVTVSS please.
low polyreactivity

Same question for QVQLVESGGGLVQAGGSLRLSCAASGSTFVRYVMGWYRQAPGKERELVAAISRRGGSTYYADSVKGRFTISRDHAKNTVYLQMNSLKPEDTAVYYCARTVGYRTLLESDSWGQGTQVTVSS please.
high polyreactivity

Same question for QVQLVESGGGLVQAGGSLRLSCAASGFIFDYNVMGWYRQAPGKKGSWVAAISWSGGSTYYADSVKGRFTISRDNAKNTVYLQMNSLKPEDTAVYYCAARGTSTYRGTGRYDYWGQGTQVTVSS please.
high polyreactivity

Same question for QVQLEESGGGLVQAGGSLRLSCAASGSIFPHYAMRWNRQAPGKERELVAAISRSGTSTYYADSVKGRFPISRDNAKNTVYLQMNSLKPEHTAVYYCNAYQVYTRTYGYWGQGTQVTVSS please.
high polyreactivity

Same question for QVQLEESGGGLVQAGGSLRLSCAASGFTFDVYAMGWYRQAPGKERELVAAIDSGGSTNYADSVKGRFTISRDNAKNTVYLQMNSLKPEDTAVYYCAVRYWKTLSHFSYDYWGQGTQVTVSS please.
low polyreactivity

Same question for QVQLVESGGGLVQAGGSLRLSCAASGRTFQYYAMGWYRQAPGKERELVAAITSGGSTYYADSVTGRFTISRDNAKYTVYLQLNSLKPEDTAVYYCDATFYYSGHDDYWGQGTLVTVSS please.
low polyreactivity

Same question for QVQLVESGGGLVQAGGSLRLSCAASGRTFPYNAMVWYRQAPGKERELVARITSGVRTYYADSVKGRFTISRDNAKNTVYLQMNSLKPEDTAVYYCAATTYNRFYRAPTSKYDYWGQGTQVTVSS please.
high polyreactivity

Same question for QVQLVESGGGLVQAGGSLRLSCAASGRIFRLYAMGWYRQAPGKERELVAAIRSATRTTYADSVKGRFTISRDNAKNTVYLQMNSLKPEDTAFYYCAARLWRYSDVSKYYSWGQGTQVTVSS please.
high polyreactivity

----------
run.description: yeast display, Sf9 membrane polyspecificity reagent, FACS + sequencing; frameworks hold sequencing errors
recorded.endpoint: polyreactivity (PSR sort gate)

INSERT INTO results (ordered_residues, result) VALUES
  ('QVQLVESGGGLVQAGGSLRLSCAASGFTFRWYTMGWYRQAPGKERELVASINWSTGSTYYADSVKGRFTISRDNAKNTVYLQMNSLKPEDTAVYYCAATAWYNSYFGLDYWGQGTQVTVSS', 'high polyreactivity'),
  ('QVQLVESVGGLVQAGGSLRLSCAATRSIFKIMRWYRQAPGKERELVAAISSSVGNTYYADSVKGRFTISRDNAKNTVYLQMNSLKPEDTAVYYCAAQSKYYQYYSWGQGTQVTVSS', 'high polyreactivity'),
  ('QDQLEESGGGLVQAGGSLRLSCAASGSTFSYYTMGWYRQGPGKETELVAAISSGGSTYADSVKGRFTISRDNAKYTVYLQKNSLKPEDTAVYYCAVVGFDYGPSQALDDWGQGTQVTVSS', 'low polyreactivity'),
  ('QVQLVESGGGLVQAGGSLRLSCAASGFIFYTYAMGWYIQAPGKERELVAAINTSGSTTNYADSVKGRFTISRDNAKNTVYLQMNSLKPEDTAVYYCAAEWNVSPYDYWGQGTQVTVSS', 'low polyreactivity');

As a next step, examine the sequence that follows.
For the sequence shown here, QVQLVESGGGIVQAGGSLRLSCAASGSILSTYAMGWYRQAPGKERELVDSISSNAGSTYYSDSVKGRFTISRDNAKNTVYLQMNSLKPEDSAVYYCNKVYGGGTYDYWGQGTQVTVSS , give the reported polyreactivity (PSR sort gate).
low polyreactivity

----------
run.description: yeast display, Sf9 membrane polyspecificity reagent, FACS + sequencing; frameworks hold sequencing errors
recorded.endpoint: polyreactivity (PSR sort gate)

INSERT INTO measurements (ordered_residues, recorded_endpoint, result) VALUES
  ('QVQLVESGGGLVQAGGSLRLSCAASGSTMAPYAMGWYRQAPGTERELVASINWGGTTTYYADSVKGRFTISRDNAKNTVYLQMNSLKPEDTAVYYCAALGLRWGRSGYYYEYYYWGQGTQVTVSS', 'polyreactivity (PSR sort gate)', 'high polyreactivity'),
  ('QVQIVESGGGLVQAGGSLRISCAATGSTFDSFAMGWYRQAPGKERELVDAITRRGTRTYYADSVKGRFTISRDNAKNTVYLQRNSLKPEDTAVYYCNAVTQCSKTPGYGFNYWGQGTQVTVSS', 'polyreactivity (PSR sort gate)', 'high polyreactivity'),
  ('QVQLVESGGGLVQAGGSLRLSCAASGSTFNPYAMGWYRQAPGKERELVAAINSRGGSTYYADSVKGRFTISRDNAKNTVYLQMNSLKPEDSAVYYCAARTRRRTSAYEYWGQGTQVTVSS', 'polyreactivity (PSR sort gate)', 'high polyreactivity'),
  ('QVQLVESGGGLVQAGGSLRLSCAASGFTFHWYAMGWYRQAPGKERELVAAISSGSSTYYADSVKGRFTISRDNAKNTVYLQMKSLKPEDTAVYYCNVVLYKYSPTESWITYDYWGQGTQVTVSS', 'polyreactivity (PSR sort gate)', 'low polyreactivity'),
  ('QVQLVESGGGLVQAGGSLRLSCAASGSIFPYYAMGWYRQAPGKVRELVATISSGGSTKYADSVKGRFTISRDNAKNTVYLQMNSLKPEDTAVYYCAADWYLGPYSWYTEKYNYCGQGTQVTVSS', 'polyreactivity (PSR sort gate)', 'high polyreactivity'),
  ('QVQLVESGGGLVQAGGSLRLSCAASGIFVGNAMGWYRQAPGKERELVAAITGDGDSTYYADSVKGRFTISRDNAKNTVYLQMNSLKPEDNAVYYCNTVFDTIVDKYYYWGQGTQVTVSS', 'polyreactivity (PSR sort gate)', 'low polyreactivity'),
  ('QVQLVESGGGLVQAGGSLRLSCASSGRTSVINAMGWYRQAPGKERELVATITWSGASTYYADSVKGRFTISRDNAKNTVYLQMNSLKPEDTAVYYCNAESLYTPYNDTSLTVEYGYWGQGTQVTVSS', 'polyreactivity (PSR sort gate)', 'low polyreactivity'),
  ('QVQLVESGGGLDQAGGSLRLSCPASGNIFTGNAMGWYRQAPGKEREFVAAISSVGGSTYYADSVKGRFTISRDNAKNTVYLQMNSLKPEDTAVYYCAASRVRYSYGYPYYYWGQGTQVTVSS', 'polyreactivity (PSR sort gate)', 'high polyreactivity');

For the sequence shown here, QVQLVESGGGLFQAGGNLRLSCAASGRTFYPNAMGWYRQAPGKERELVAGIRSSGDSTYYADSVKVRFTISRDNAKNTVYFQMNSLKPEDTAVYYCNRDLTPSYDYWGQGSQVTVSS , give the reported polyreactivity (PSR sort gate).
low polyreactivity

Same question for QVKLVESGGGLVQAGGSLRLSCAASGRIFRYYVMGWYRQAPGKERELVAAITSGGSTYYADSVKGRFTISRDNAKNTVYLQMNSLKPEDTAVYYCNVVGRYGSFRSAEMNYWGQGTQVTVSS please.
high polyreactivity

Same question for QVQLVESGGGLVQAGGSLRLRCAASGRTFDKYAMGWYRQAPGKERELVAAISYDAGRTYYADSVKGRFTISRDNAKNTVYLQMNSLKPEDNAVYFCNAVRFRGFGWGQGTQVTVSS please.
high polyreactivity
